assay: Inhibition of HTLV-1 protease; parameters: species or system Human T-cell leukemia virus type I
pKi: −log10 of the molar value.
endpoint-label: pKi

[
  {
    "compound-smiles": "CC(C)(C)NC(=O)[C@@H]1CN(Cc2cccnc2)CCN1C[C@@H](O)C[C@@H](Cc1ccccc1)C(=O)N[C@H]1c2ccccc2C[C@H]1O",
    "result": 5.46
  },
  {
    "compound-smiles": "CC(C)(C)NC(=O)[C@@H]1C[C@@H]2CCCC[C@@H]2CN1C[C@@H](O)[C@H](Cc1ccccc1)NC(=O)[C@H](CC(N)=O)NC(=O)c1ccc2ccccc2n1",
    "result": "< 4.70"
  },
  {
    "compound-smiles": "CC(C)CN(C[C@@H](O)[C@H](Cc1ccccc1)NC(=O)O[C@H]1CCOC1)S(=O)(=O)c1ccc(N)cc1",
    "result": "< 4.70"
  },
  {
    "compound-smiles": "Cc1c(O)cccc1C(=O)N[C@@H](CSc1ccccc1)[C@H](O)CN1C[C@H]2CCCC[C@H]2C[C@H]1C(=O)NC(C)(C)C",
    "result": "< 4.70"
  }
]
